system-name: T1, SLFN11 (WT) (Homo sapiens, UniProt Q7Z7L1 1-901)
T1 sequence: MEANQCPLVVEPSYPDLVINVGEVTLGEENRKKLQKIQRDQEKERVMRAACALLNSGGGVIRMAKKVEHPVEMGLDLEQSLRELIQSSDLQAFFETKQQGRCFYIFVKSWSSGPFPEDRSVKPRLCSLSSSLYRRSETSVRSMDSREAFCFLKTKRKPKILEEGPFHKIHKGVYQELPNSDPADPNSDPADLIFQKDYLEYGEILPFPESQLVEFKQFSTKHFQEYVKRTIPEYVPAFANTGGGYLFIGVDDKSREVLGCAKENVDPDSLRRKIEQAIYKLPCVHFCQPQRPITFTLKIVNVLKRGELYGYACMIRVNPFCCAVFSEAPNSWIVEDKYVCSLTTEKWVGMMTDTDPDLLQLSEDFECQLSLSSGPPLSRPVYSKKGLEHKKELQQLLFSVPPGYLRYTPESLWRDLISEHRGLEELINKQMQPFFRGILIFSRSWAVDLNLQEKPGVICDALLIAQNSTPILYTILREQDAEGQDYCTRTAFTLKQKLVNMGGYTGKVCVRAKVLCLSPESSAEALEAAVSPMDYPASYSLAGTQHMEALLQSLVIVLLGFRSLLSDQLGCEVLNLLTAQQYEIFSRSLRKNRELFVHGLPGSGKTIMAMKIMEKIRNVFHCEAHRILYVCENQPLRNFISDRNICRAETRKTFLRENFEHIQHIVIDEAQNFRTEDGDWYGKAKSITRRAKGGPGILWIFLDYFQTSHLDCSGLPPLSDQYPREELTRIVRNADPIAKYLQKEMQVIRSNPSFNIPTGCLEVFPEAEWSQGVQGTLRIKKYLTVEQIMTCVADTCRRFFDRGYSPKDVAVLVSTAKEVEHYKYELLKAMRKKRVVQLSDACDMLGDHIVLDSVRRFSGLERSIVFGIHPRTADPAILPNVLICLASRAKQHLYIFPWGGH
protocol-text: BLI; steady state; kdis 4.8e-4 /s; BLI: PBS, 0.02% P20, 0.1% BSA, 25 C; EMSA: 25 mM HEPES pH 7.5, 50 mM NaCl, 8% glycerol, 2 mM MgCl2, 1 mM DTT, 4 C, 50 nM ssDNA; cryo-EM: RNA in 40 mM Tris-HCl pH 8.0, 20 mM KCl, 4 mM MgCl2, 2 mM DTT, protein:RNA 1:1.2, 4 C overnight
condition-context: protein: recombinant; tags: Strep-II-SUMO (N-term); chain copies: 2
pKd: −log10 of the molar value.
value-kind: pKd

binder	observed-value
AATTGGTCGTAGCAAGCTCTAGCACCGCTTAAACGCACGTACGCGCTGTC (ssDNA) [50-nt ssDNA (BLI)]	7.43
